Consider the following molecules; for each one, report its melting point.

Would you please look over these solved cases?
COc1ccc(-c2coc(C(=O)O)cc2=O)cc1	232 to 234 °C
CCN1CS(=O)c2cccc(Cl)c21 (stereo not given)	94 to 98 °C
COC(=O)CCc1cn(Cc2ccc(C(=O)OC(C)(C)C)cc2OC)c2cc(C(=O)NCC3CCCC3)ccc12	58 to 60 °C
COc1ccc(C(=O)Nc2cc(NC(=O)c3cccc(N)c3)ccc2C)cc1OC	179 to 180 °C
Cn1cncc1C(O)(c1ccc(F)cc1)c1ccc2nc(Cl)nc(-c3cccc(Cl)c3)c2c1 (stereo not given)	212 °C
Cc1cc(C(C)(C)C)c(O)c2[nH]c(Cc3ccccc3)nc12	226 to 228 °C

Each molecule below has a recorded value; state its melting point.
1. CCCCCc1ccc(-c2c(C(C)C)ccc(CO)c2C(C)C)nc1
2. Cc1cnc(C2=NC(C)(C(C)C)C(=O)N2)c(C(=O)C(=O)N(C)C)c1 (stereo not given)
3. COc1c(C)ccc(C(C)C)c1CO
4. N#Cc1ccc(-c2ccc(-c3ccc(C#N)o3)o2)cc1

81 to 82 °C
180 to 182 °C
100 to 101 °C
194 to 195 °C

====

Readout Label: melting point

Previously resolved entries follow.
CCN(CC)Cc1nc2cc(OC)c(OC)cc2c(-c2ccc(OC)c(OC)c2)c1C(=O)c1ccccc1	150 to 151 °C
COC(=O)c1oc2c(sc3ccccc32)c1OC	145 to 146 °C
Oc1cccc(C2CCCN2Cc2ccccc2)c1 (stereo not given)	113 to 115 °C

# batch: return melting point for each of the 7 compounds below
1. CCCCn1cc(C=C2SC(=S)N(CC(=O)O)C2=O)c2ccccc21
2. O=C1c2ccc(O)cc2OCN1CCO
3. CCCOc1cc(/C=C/C(=O)OCC)n(Cc2ccccc2)n1
4. O=C(NCc1ccc(Cl)cc1)c1cn2c(CSc3ccccc3)cc3cc(CN4CCOCC4)cc(c1=O)c32
5. Clc1ccc(C2CCN3c4ccccc4C4=NCCN4C23)cc1 (stereo not given)
6. CC(C)(C)OC(=O)[C@H]1C[C@H](C(=O)Nc2ccccc2)[C@@H](c2ccccc2F)N1C(=O)CNC(=O)Nc1cccc(C(=O)O)c1 (racemic)
7. Cn1nc(-c2c(Cl)cncc2Cl)nc1Cc1ccc(Cl)cc1Cl

280 to 285 °C
182 to 184 °C
56 to 57 °C
173 to 175 °C
158 to 160 °C
170 °C
79 to 81 °C

====

Readout Label: melting point

Would you mind listing melting point for each of the following compounds?
1. OCc1coc(Cc2ccc(F)cc2)c1
2. NNC(=O)C(=O)N(N)C(=O)c1ccccc1
3. Cc1nc2cc(NC(=O)c3ccccc3O)ccc2o1
4. CCCCOC(=O)c1ccc(NC2=NC3=NC(Nc4ccc(C(=O)OCCCC)cc4)=NC4=NC(Nc5ccc(C(=O)OCCCC)cc5)=NC(=N2)N34)cc1
5. COCCn1cnc2ccc(-c3sc(N)nc3-c3cccc(C)n3)cc21
6. O=[N+]([O-])c1cnccc1Oc1ccc2[nH]ccc2c1
7. N#Cc1cc(N)c(Cl)cc1C#N
8. CCOC(=O)c1cc(F)ccc1[N+](=O)[O-]

["45 to 47 °C", "226 °C", "202 to 206 °C", "289 to 290 °C", "200 to 202 °C", "182 to 184 °C", "206 to 209 °C", "< 50 °C"]

Batch request: melting point for each of the following compounds.
1. O=c1oc(-c2cc(C(F)(F)F)cc(C(F)(F)F)c2)cc(O)c1Cc1ccccc1
2. CN(C)CC1CNc2ccc(Cl)cc2C1 (stereo unspecified)
3. Cc1c(N2C(=O)C[C@H](O)[C@@H]2C)ccc(C#N)c1F
4. CCOC(=O)C(=O)N(C)c1cccccc1=O
5. COC(=O)C=Cc1ccc2c(c1)Cc1cc(C=CC(=O)OC)ccc1-2
6. NCCCC(=O)NCCS(=O)(=O)O
7. CC(=O)n1c(-c2ccc(C)cc2)cc2ccccc21

1: 80 to 82 °C; 2: 94 to 96 °C; 3: 114 to 115 °C; 4: 70 to 71 °C; 5: 206 to 209 °C; 6: 247 °C; 7: 67 to 69 °C

Below is a list of compounds. For each, state its recorded melting point.
1. O=c1[nH]c2ccc3c(c2[nH]c1=O)NCCC3
2. COc1ccc2c(c1)C(Oc1ccccc1)=C(C(=O)O)S2=O (stereo unspecified)
3. CCCCNc1cc(C(=O)O)cc(S(N)(=O)=O)c1Nc1ccc(N)cc1
4. COC(=O)C1=C(C)NC(C)=C(C(=O)OCCN2CCN(c3ccc(F)cc3)CC2)C1c1cccc(Cl)c1 (stereo unspecified)

1. > 300 °C
2. 204 to 206 °C
3. 210 °C
4. 44 to 49 °C

Look at each compound and report its melting point.
1. Cc1cc(-n2ccnc2)c2cccc(OCc3c(Cl)ccc(S(=O)(=O)N4CCC[C@H]4C(=O)NCC4CCN(CCCO)CC4)c3Cl)c2n1
2. CN1C(=O)[C@H](NC(=O)CCc2ccccc2C(F)(F)F)N=C(c2ccccc2)c2ccccc21

["90 °C", "110 to 113 °C"]

====

Readout Label: melting point

A selection of reference data follows.
Nc1cc(Cl)cnc1F	74 °C
FC(F)(F)c1nnnn1-c1cccc2ccccc12	108 °C
C=CCNc1nc(NC(C)C)c2scc(C)c2n1	106 to 107 °C
CCCCCC(=O)Oc1c(-c2ccc(-c3ccccc3)cc2)nc2ccc(F)cc2c1C(=O)O	179 to 206 °C
CCc1c(-c2ccc(O)cc2)c2ccc3ccc(COCCN4CCCCC4)c1n32	68 to 75 °C

# input for lookup
Which value of melting point has been reported for CN(C)CCNC1=CC(=O)c2nc(-c3ccccc3Br)oc2C1=O in the records?
147 to 148 °C

====

Please respond with reported melting point for every item in the list.

N#CN1CCC2(CC1)CN(c1ccccc1Cl)c1ccccc12	158 to 160 °C
N#Cc1cc(-c2ccc(Cl)cc2)c(Br)[nH]1	202 to 204 °C
Cc1ccc(S(=O)(=O)N2CCC3(CCc4ccccc43)CC2)cc1	140 to 142 °C
CCOP(=O)(CCN1CCC(N(CCN)S(=O)(=O)c2ccc(Nc3nccc(Nc4ccc(F)cc4)n3)cc2)CC1)OCC	90 °C
CC1(C)CC(=O)c2cc(Br)ccc21	117 to 118 °C

Please give melting point for each item listed below.
1. COC(=O)CSC1c2ccccc2C=Cc2ccccc21
2. O=C(O)C1OCc2ccccc2O1 (stereo unspecified)
3. COC(=O)COc1ccc([C@H]2c3ccc(O)cc3OC[C@H]2c2ccccc2)cc1 (racemic)
4. COc1ccc(-n2nc(Sc3cccc(Cl)c3)c(C)c(C#N)c2=O)cc1
5. O=c1c2c([nH]c3nc(NCc4ccccc4)nn13)CCCS2
6. O=C(O)CCCCCCCCCCn1c(-c2ccccc2)nc(-c2ccccc2)c1-c1ccccc1
7. CS(=O)(=O)c1ccc(-c2cc(C(F)(F)F)cnc2C(=O)c2ccccc2)cc1

1: 74 to 76 °C; 2: 88 °C; 3: 133 to 134 °C; 4: 123 to 124 °C; 5: 332 to 335 °C; 6: 76 to 78 °C; 7: 141 to 142 °C

Quick batch: melting point for everything below.
1. CC(=O)Oc1ccc2cc(-c3ccc(C(=O)O)cc3)ccc2c1
2. COc1cc2ncc(C#N)c(Nc3ccc(SC)cc3)c2cc1OC

254 to 256 °C
235 to 237 °C

I have 5 compounds here; please give me melting point for each one.
1. COC(=O)c1ccc(N2CCOCC2)c(NC(=N)N)c1
2. CC(C)(Cl)CC(N)C(=O)NC(C(=O)Nc1ccccc1)C(=O)c1ccccc1 (stereo unspecified)
3. Cc1nc(C)nc(NC(=O)NS(=O)(=O)c2ccccc2C)n1
4. CCOC(=O)c1sc2[nH]c(=O)c(=O)[nH]c2c1C
5. CCc1cc(O)cc2cc(-c3ccc(O)cc3)oc12

1. 152 to 154 °C
2. 145 to 147 °C
3. 141 to 145 °C
4. > 300 °C
5. 218 to 220 °C

====

Assign melting point to each entry below.

As a guide, the following entries are already answered.
CC(C)(C)OC(=O)CCc1cccc(-c2nc(=O)c3ccc(Cl)cc3s2)n1	168 °C
Clc1ccccc1-c1nc(-c2ccccn2)no1	93 to 94 °C
CC(N)C(=O)N(CCC(=O)O)C1Cc2ccccc2C1 (stereo unspecified)	205 to 206 °C
OC(Cn1ccnc1)c1cccnc1 (stereo unspecified)	119 to 121 °C
N#CC(C(=O)OC1CCCCC1)=C1Nc2ccccc2O1	143 to 145 °C
COC(=O)C[C@H](Cc1ccc(-c2ccccc2)cc1)NC(=O)OC(C)(C)C	86 to 87 °C
Cc1ccc(C(=C(C=O)c2nnnn2C)c2ccc(C)cc2F)c(F)c1	154 to 155 °C
CCOc1ccc2[nH]c(=O)n(C(C)(C)CC(C)(C)C)c2c1	108 °C

List melting point for every entry below, keeping the order given.
1. NC(=O)COc1ncc(Cl)c(N)c1Cl
2. Cc1cc([N+](=O)[O-])c(C)cc1O
3. Cc1nc2c3c(ccn2c1C)C(O)C(O)C(c1ccccc1)N3 (stereo unspecified)

1. 192 to 193 °C
2. 121 to 123 °C
3. 199 to 200 °C

Origin of the recorded values: a melting point compilation (Tetko et al.; mined from patent text by program, amines drawn as free bases though some values may be those of a salt)
